molecular target: BRD4-2 (Homo sapiens (Human), UniProt O60885); assay: BRD4-2 Ligand KI assay (TR-FRET, Cy5 labeled ligand displacement); format: binding; conditions: 0.5 nM BRD4-2, 10 nM labeled ligand; IC50 converted to Ki by Cheng and Prusoff
Measurement Type: pIC50
// pIC50 is dimensionless: -log10 of concentration (M)

# Compound, pIC50
records = [
    ("Cc1noc(C)c1-c1cc(C(O)(c2cccnn2)C2CCCO2)c2nc(C3CC3)[nH]c2c1 (single isomer, unassigned) [Compound 1020-289]", 8.70),
]

Turning now to a further compound:
Name the reported pIC50 value associated with the compound Cc1noc(C)c1-c1cc(C(O)(c2cccnn2)C2CCC(C)(C)O2)c2nc(C3CC3)[nH]c2c1 (single isomer, unassigned) [Compound 1020-298]
8.44
